Every entry's value here was drawn from PubChem BioAssay (NCI).

- System: EKVX NSCLC
- Assay info: NCI tumour cell line growth inhibition, 48 h
Assignment: determine reported TGI for the given molecules.

Complete the entry with TGI for CCN(CC)C(=S)SS(=O)(=O)c1ccc(N)cc1
> 100 µM

Complete the entry with TGI for O=C(O)C(CO)N=Cc1nc(-c2ccccc2)oc1O (centres undefined)
> 100 µM

Complete the entry with TGI for C#CC#CC#CC#CC#CC#CC#CC#CC[C@@H]1OC[C@H](COC(=O)O[C@@H](C(=O)O[C@H]2C[C@@]3(O)[C@@H](OC(=O)c4ccccc4)[C@@H]4[C@]5(OC(C)=O)CO[C@@H]5C[C@H](O)[C@@]4(C)C(=O)[C@H](OC(C)=O)C(=C2C)C3(C)C)[C@@H](NC(=O)c2ccccc2)c2ccccc2)O1
> 25 µM

Complete the entry with TGI for CCN(CC)c1c(C(=O)/C=C/c2ccc(F)cc2)c(-c2ccccc2)nn(C)c1=O
55.3 µM

###

- Test system: HL-60(TB) leukemia
- Assay info: NCI tumour cell line growth inhibition, 48 h
# binarize TGI: threshold 6 µM inclusive, high side TRUE, low side FALSE

TGI >= 6 µM for COc1ccc(N)c(C(=O)CCNC(C)=O)c1 ?
TRUE

TGI >= 6 µM for COc1ccc(CNc2cnc3ccc(N)cc3n2)cc1OC ?
TRUE

TGI >= 6 µM for O=C(O)C(CO)N=Cc1nc(-c2ccccc2)oc1O (configuration not stated) ?
TRUE

TGI >= 6 µM for C#CCNCCCN1C(=O)c2ccc3c4c(ccc(c24)C1=O)C(=O)N(CCCNCC#C)C3=O ?
FALSE

TGI >= 6 µM for O=C1NC(N/N=C\C(O)C(O)C(O)C(O)CO)=N/C1=C\c1ccc(Cl)cc1 (configuration not stated) ?
TRUE

TGI >= 6 µM for CC(C)OP(=O)(OC(C)C)/C(F)=N/Nc1ccc([N+](=O)[O-])cc1 ?
TRUE

TGI >= 6 µM for COc1ccc(/C=C2\C(=O)NC(=O)c3ccccc32)cc1OC ?
TRUE

TGI >= 6 µM for CCN(CC)c1c(C(=O)/C=C/c2ccc(F)cc2)c(-c2ccccc2)nn(C)c1=O ?
TRUE

TGI >= 6 µM for CCCCCCCCCCCCCCCC(=O)Nc1ccn([C@@H]2O[C@H](CO)[C@@H](O)[C@@H]2C#N)c(=O)n1 ?
TRUE

TGI >= 6 µM for COc1ccc2c(c1OC)OC[C@@H](C1=CC(=O)C=C(O)C1=O)C2 ?
FALSE

TGI >= 6 µM for C/C(=N\Nc1nc2ccccc2o1)c1ccc2ccccc2n1 ?
TRUE

TGI >= 6 µM for COC(=O)C(C)NP(=O)(OCc1ccc(Cn2cnc3c(N)ncnc32)cc1)Oc1ccccc1 (configuration not stated) ?
TRUE

###

- Test system: MALME-3M melanoma
- Assay info: NCI tumour cell line growth inhibition, 48 h
Assignment: determine reported TGI for the given molecules.

Complete the entry with TGI for Cc1ccc(S(=O)(=O)NC2CCCCO2)cc1 (centres undefined)
> 100 µM

Complete the entry with TGI for CC(C)(C(=O)NCC(F)(F)C(F)(F)F)C(=O)N[C@@H]1C(=O)Nc2ccccc2-c2ccccc21
> 100 µM

Complete the entry with TGI for COc1ccc2c(c1OC)C(=O)OC2C1c2c(c(N)c3c(c2OC)OCO3)CCN1C (centres undefined)
> 100 µM

Complete the entry with TGI for CO/C(=N\N=C\c1ccccc1F)c1ccncc1
> 10 µM

Complete the entry with TGI for COC(=O)C(=O)C(CC(=O)Nc1c(C)cccc1C)C(=O)OC (centres undefined)
> 100 µM

Complete the entry with TGI for C=C(C)[C@@H]1CC[C@]2(C(N)=O)CC[C@]3(C)[C@H](CC[C@@H]4[C@@]5(C)C/C(=C/c6cccnc6)C(=O)C(C)(C)[C@@H]5CC[C@]43C)[C@@H]12
41.7 µM

Complete the entry with TGI for Cc1cc(S(=O)(=O)N/C(=C(\C#N)C(=O)c2ccccc2)[n+]2ccc(N(C)C)cc2)c([S-])cc1Cl
94 µM

Complete the entry with TGI for CCC1c2[nH]c3ccccc3c2C[C@H]2C(=O)NC(Cc3c[nH]c4ccccc34)C(=O)N12 (some centres undefined)
36.3 µM

Complete the entry with TGI for Cc1oc2c(cc(O)c3ccccc32)c2cccc1-2
> 100 µM

Complete the entry with TGI for CC1(O)C(C)(O)C(C)(O)C1(C)O (centres undefined)
> 100 µM

Complete the entry with TGI for C#CC#CC#CC#CC#CC#CC#CC#CC[C@@H]1OC[C@H](COC(=O)O[C@@H](C(=O)O[C@H]2C[C@@]3(O)[C@@H](OC(=O)c4ccccc4)[C@@H]4[C@]5(OC(C)=O)CO[C@@H]5C[C@H](O)[C@@]4(C)C(=O)[C@H](OC(C)=O)C(=C2C)C3(C)C)[C@@H](NC(=O)c2ccccc2)c2ccccc2)O1
> 25 µM

Complete the entry with TGI for O=[N+]([O-])/C(C(Cl)=C(Cl)Cl)=C(\Nc1cccc2ccccc12)n1nnc2ccccc21
> 100 µM

Complete the entry with TGI for NC(=O)/C(=N\NC(=O)c1cc2ccccc2cc1O)C1C(=O)N(c2ccccc2)N=C1N (centres undefined)
> 100 µM

Complete the entry with TGI for CCOP(=O)(OCC)C(C)(C)OC(=O)NC(F)(F)F
> 100 µM

Complete the entry with TGI for COc1ccc(CNc2nc3ccccc3nc2C(=O)O)cc1OC
> 100 µM

Complete the entry with TGI for O=S(=O)(Nc1nc2ccccc2n1S(=O)(=O)c1ccccc1)c1ccccc1
> 100 µM

Complete the entry with TGI for CCOC(=O)C1=C(C)N2CCOC2(C)C(C(=O)OC)C1c1cccc(Cl)c1 (centres undefined)
> 100 µM

Complete the entry with TGI for CCCCS/C(=C(/C#N)C(N)=O)c1cc2c([nH]1)CCCC2
23.8 µM

Complete the entry with TGI for CCCC(=O)Nc1ccc(O)c2c1C1CCCCCC21 (centres undefined)
> 100 µM

Complete the entry with TGI for COc1cc2c(cc1OCCCCCN1CCN(CCCCCOc3cc4c(cc3OC)C(=O)C3CCC[C@H]3C=N4)CC1)N=C[C@@H]1CCCC1C2=O (some centres undefined)
47.7 µM

Complete the entry with TGI for O=C(Nc1ccccc1SC(/C=C/NNC1=NC(c2ccccc2)C(c2ccccc2)=NN1)c1ccccc1)c1ccc(Cl)cc1Cl (centres undefined)
> 100 µM

Complete the entry with TGI for NC1(P(=O)(O)O)CCCCC1
> 100 µM

Complete the entry with TGI for CCSC1=CC(Cc2ccc(OC)cc2)N(C(=O)OC)C1 (centres undefined)
> 100 µM

Complete the entry with TGI for CCNCCNc1cc(-c2ccc(Cl)c(Cl)c2)c(C#N)c2nc3ccccc3n12
3.41 µM

Complete the entry with TGI for O=Cc1cn(Cc2ccccc2)c2ccccc12
> 100 µM

Complete the entry with TGI for COc1ccc(N(CN2C(=O)CCC2OC)C(C)=O)cc1 (centres undefined)
> 100 µM

Complete the entry with TGI for COc1cc(Br)c(CC2C3=C(CCN2C(=O)C2CCC2)CC2(CC3)OCCO2)cc1O (centres undefined)
> 100 µM

Complete the entry with TGI for O=C(CCC1CCCCC1)NCc1ccc(C(=O)O)cc1
> 100 µM

Complete the entry with TGI for CCCCC1(C2c3ccccc3Oc3ccccc32)C(=O)N(c2ccccc2)N(c2ccccc2)C1=O
> 100 µM

Complete the entry with TGI for CN(C)CCNc1ccc2nnn3c4ccc(O)cc4c(=O)c1c23
19.5 µM

Complete the entry with TGI for CCCCCCCC/C(=C\C1=C(C)C(=O)C(OC)=C(OC)C1=O)C(=O)O
> 100 µM

Complete the entry with TGI for CCN(CC)C(=S)SS(=O)(=O)c1ccc(N)cc1
> 100 µM

Complete the entry with TGI for Fc1ccc(-c2ncn(C3CCNCC3)c2-c2ccnc(Oc3cccc(C(F)(F)F)c3)n2)cc1
10.1 µM

Complete the entry with TGI for CNC(=O)c1ccc(C(=O)NCCCCCN(O)C(=O)CCC(=O)NCCCCCN(O)C(=O)CCC(=O)NCCCCCN(O)C(C)=O)c(O)c1O
> 100 µM

Complete the entry with TGI for CN1CCN(Cc2nc3cccc4c3c([n+]2[O-])-c2ccccc2-4)CC1
> 50.2 µM

Complete the entry with TGI for CN1CCC(CN2c3ccccc3Sc3ccccc32)C1 (centres undefined)
31.7 µM

Complete the entry with TGI for O=c1cc(-c2ccccc2)[nH]c2ccc(N3CCCC3)cc12
> 100 µM

Complete the entry with TGI for O=S(=O)(Nc1nccs1)c1ccc(Nc2nc(-c3cccs3)nc3ccc(I)cc23)cc1
44.2 µM

Complete the entry with TGI for O=C1c2ccccc2CC12CCC1(CC2)OCCO1
> 100 µM

###

- Test system: SF-539 CNS
- Assay info: NCI tumour cell line growth inhibition, 48 h; in the data active = GI50 below about 0.43 µM; inactive = the rest
Where a SMILES comes first, the peptide text is derived from it.
Log the outcome using a class from yes (1) = active, no (0) = inactive

Kindly provide the recorded test outcome for the following compound: CCCCCCC(O)(c1ccc(F)cc1)C(CN1CCOCC1)c1ccccc1 (centres undefined)
no (0)

Kindly provide the recorded test outcome for the following compound: CCCCCCCCCCCCCCCC(=O)Nc1ccn([C@@H]2O[C@H](CO)[C@@H](O)[C@@H]2C#N)c(=O)n1
no (0)

Kindly provide the recorded test outcome for the following compound: CCCCCN1C(=O)/C(=c2\sc3n(c2=O)C2C(NN=3)N(CC)C(=O)N2CC)c2ccccc21 (centres undefined)
no (0)

Kindly provide the recorded test outcome for the following compound: CC(=O)/C(=C\c1c(-c2ccccc2)[nH]c2ccccc12)S(C)(=O)=O
no (0)

Kindly provide the recorded test outcome for the following compound: O=Cc1cn(Cc2ccccc2)c2ccccc12
no (0)

Kindly provide the recorded test outcome for the following compound: CCOC(=O)c1cc(C(=O)c2cc(OC)c(OC)c(OC)c2)n2nc(C)ccc12
yes (1)

Kindly provide the recorded test outcome for the following compound: CCC(C)C1NC(=O)C(CCCCN)NC(=O)C(CCCCN)NC(=O)C(CC(C)C)NC(=O)C(CCCCN)NC(=O)C(C(C)CC)NC(=O)C(C(C)C)NC(=O)C(C(C)CC)NC(=O)C(CCCCN)NC(=O)C(CCCCN)NC(=O)C(C)NC(=O)C(CCCCN)NC(=O)C(CC(C)C)NC1=O (centres undefined) (cyclo(AKKIVIKLKKILK); configuration not given here)
no (0)

Kindly provide the recorded test outcome for the following compound: COC(=O)c1ccc(C2SC(C)C(=O)N2NC(=O)C(O)c2ccccc2)cc1 (centres undefined)
no (0)

Kindly provide the recorded test outcome for the following compound: COC(=O)C(C)NP(=O)(OCc1ccc(Cn2cnc3c(N)ncnc32)cc1)Oc1ccccc1 (centres undefined)
no (0)
